Experimental system: EphA4 (Homo sapiens, UniProt P54764)
Sequence (P54764 20-986): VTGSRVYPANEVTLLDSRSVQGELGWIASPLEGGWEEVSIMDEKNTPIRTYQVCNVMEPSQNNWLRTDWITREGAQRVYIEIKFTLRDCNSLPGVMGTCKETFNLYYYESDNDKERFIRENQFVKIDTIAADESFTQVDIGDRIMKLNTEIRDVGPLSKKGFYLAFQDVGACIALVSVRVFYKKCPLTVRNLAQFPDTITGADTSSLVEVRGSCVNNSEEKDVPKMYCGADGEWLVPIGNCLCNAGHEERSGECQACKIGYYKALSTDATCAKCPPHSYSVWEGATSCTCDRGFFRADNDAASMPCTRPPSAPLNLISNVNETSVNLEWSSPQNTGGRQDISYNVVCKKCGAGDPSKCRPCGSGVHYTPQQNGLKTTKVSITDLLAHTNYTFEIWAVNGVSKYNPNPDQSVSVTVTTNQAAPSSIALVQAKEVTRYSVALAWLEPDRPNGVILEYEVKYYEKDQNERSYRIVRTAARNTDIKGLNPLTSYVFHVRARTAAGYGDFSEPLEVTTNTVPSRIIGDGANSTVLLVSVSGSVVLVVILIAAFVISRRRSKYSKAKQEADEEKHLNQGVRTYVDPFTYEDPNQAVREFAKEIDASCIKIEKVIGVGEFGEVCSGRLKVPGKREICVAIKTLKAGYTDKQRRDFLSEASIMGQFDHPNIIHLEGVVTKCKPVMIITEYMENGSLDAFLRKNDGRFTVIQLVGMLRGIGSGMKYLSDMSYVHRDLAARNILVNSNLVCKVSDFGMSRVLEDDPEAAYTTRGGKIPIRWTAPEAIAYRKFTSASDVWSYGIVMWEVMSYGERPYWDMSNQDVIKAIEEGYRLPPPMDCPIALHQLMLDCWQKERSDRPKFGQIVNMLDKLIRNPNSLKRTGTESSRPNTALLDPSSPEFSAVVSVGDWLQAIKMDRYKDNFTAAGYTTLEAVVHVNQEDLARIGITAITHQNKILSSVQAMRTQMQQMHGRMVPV
Test protocol: Eph receptor kinase activity assay (radiometric), EphA4
Type: biochemical
Setup conditions: 10 nM compound; read-out: EphA4 % act 10 nM
Cut-off 80% on remaining activity at 0.01 µM: below means Fulfilled, at or above means Not fulfilled.

> print(dat)
                               given.smiles          label
1  COc1cccc(-c2ccc3ncc(C(=O)Nc4ccccc4Cl)n3c2)c1  Not fulfilled
2  Cc1cccc(-c2ccc3ncc(C(=O)Nc4ccccc4Cl)n3c2)c1      Fulfilled
3  NC(=O)c1cccc(-c2ccc3ncc(C(=O)Nc4ccccc4Cl)n3c2)c1      Fulfilled
4  O=C(Nc1ccccc1Cl)c1cnc2ccc(-c3ncccn3)cn12  Not fulfilled
5  O=C(Nc1ccccc1Cl)c1cnc2ccc(-c3ccccc3O)cn12  Not fulfilled
6  COc1cccc(NC(=O)c2cnc3ccc(C4CCNCC4)cn23)c1Cl      Fulfilled
7  Cc1ccc(-c2ccc3ncc(C(=O)Nc4ccccc4Cl)n3c2)cc1  Not fulfilled

---

Known remaining activity at 0.01 µM of a selection of compounds
Experimental system: EphB3 (Homo sapiens, UniProt P54753)
Sequence (P54753 34-998): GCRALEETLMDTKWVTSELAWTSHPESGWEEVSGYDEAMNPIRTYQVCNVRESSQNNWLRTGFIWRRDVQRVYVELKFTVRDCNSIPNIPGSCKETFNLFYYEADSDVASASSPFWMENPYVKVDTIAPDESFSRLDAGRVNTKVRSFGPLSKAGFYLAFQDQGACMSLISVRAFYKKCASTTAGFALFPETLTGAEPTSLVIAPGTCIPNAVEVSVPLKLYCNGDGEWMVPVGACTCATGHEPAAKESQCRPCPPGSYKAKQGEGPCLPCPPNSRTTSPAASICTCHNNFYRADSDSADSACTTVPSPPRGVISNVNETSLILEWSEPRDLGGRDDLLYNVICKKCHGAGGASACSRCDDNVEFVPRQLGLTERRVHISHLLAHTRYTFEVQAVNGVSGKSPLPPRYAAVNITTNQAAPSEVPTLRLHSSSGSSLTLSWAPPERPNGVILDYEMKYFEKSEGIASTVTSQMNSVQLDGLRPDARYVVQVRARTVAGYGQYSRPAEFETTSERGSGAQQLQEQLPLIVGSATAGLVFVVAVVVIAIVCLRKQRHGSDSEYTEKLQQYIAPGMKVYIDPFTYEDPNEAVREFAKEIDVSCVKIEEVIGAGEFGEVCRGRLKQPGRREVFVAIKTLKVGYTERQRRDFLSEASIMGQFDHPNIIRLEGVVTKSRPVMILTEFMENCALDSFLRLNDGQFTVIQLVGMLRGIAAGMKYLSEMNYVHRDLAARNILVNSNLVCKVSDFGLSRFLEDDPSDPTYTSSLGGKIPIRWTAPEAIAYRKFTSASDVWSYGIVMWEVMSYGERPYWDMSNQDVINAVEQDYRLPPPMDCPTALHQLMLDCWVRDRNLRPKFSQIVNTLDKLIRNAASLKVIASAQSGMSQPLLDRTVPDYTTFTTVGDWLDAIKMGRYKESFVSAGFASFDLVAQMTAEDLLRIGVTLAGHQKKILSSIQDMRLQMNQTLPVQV
Test protocol: EphB3 radiometric kinase activity assay (33P ATP filter binding)
Assay type: biochemical
Setup conditions: 10 nM compound; read-out: EphB3 % act 10 nM
Measure name: remaining activity at 0.01 µM (%)

> print(dat)
                               given.smiles                   measure.name  val
1  COc1ccc(Cl)c(NC(=O)c2cnc3ccc(C4CCNCC4)cn23)c1  remaining activity at 0.01 µM  116
2  O=C(Nc1ccccc1Cl)c1cnc2ccc(-c3ccccc3O)cn12  remaining activity at 0.01 µM  112
3  NC(=O)c1cccc(-c2ccc3ncc(C(=O)Nc4ccccc4Cl)n3c2)c1  remaining activity at 0.01 µM   58
4  Cc1ccc(-c2ccc3ncc(C(=O)Nc4ccccc4Cl)n3c2)cc1  remaining activity at 0.01 µM  110
5  O=C(Nc1ccccc1Cl)c1cnc2ccc(-c3ncccn3)cn12  remaining activity at 0.01 µM  108
6  O=C(Nc1ccccc1Cl)c1cnc2ccc(-c3ccccn3)cn12  remaining activity at 0.01 µM   50
7  CN(C)CC(=O)N1CCC(c2ccc3ncc(C(=O)Nc4ccccc4Cl)n3c2)CC1  remaining activity at 0.01 µM  116

---

Experimental system: UniProtKB P54764
Test protocol: Eph receptor kinase activity assay (radiometric), EphA4
Format: biochemical
Setup conditions: 100 nM compound; read-out: EphA4 % act 100 nM
Below is a list of entries, each paired with its recorded remaining activity at 0.1 µM value.
Measure name: remaining activity at 0.1 µM (%)

> print(dat)
                               given.smiles   val
1  O=C(Nc1ccccc1Cl)c1cnc2ccc(-c3ccccn3)cn12    25
2  NCc1cccc(-c2ccc3ncc(C(=O)Nc4ccccc4Cl)n3c2)c1    12
3  Cc1ccc(-c2ccc3ncc(C(=O)Nc4ccccc4Cl)n3c2)cc1  57.8

---

Experimental system: EphA2 (Homo sapiens, UniProt P29317)
Sequence (P29317 24-976): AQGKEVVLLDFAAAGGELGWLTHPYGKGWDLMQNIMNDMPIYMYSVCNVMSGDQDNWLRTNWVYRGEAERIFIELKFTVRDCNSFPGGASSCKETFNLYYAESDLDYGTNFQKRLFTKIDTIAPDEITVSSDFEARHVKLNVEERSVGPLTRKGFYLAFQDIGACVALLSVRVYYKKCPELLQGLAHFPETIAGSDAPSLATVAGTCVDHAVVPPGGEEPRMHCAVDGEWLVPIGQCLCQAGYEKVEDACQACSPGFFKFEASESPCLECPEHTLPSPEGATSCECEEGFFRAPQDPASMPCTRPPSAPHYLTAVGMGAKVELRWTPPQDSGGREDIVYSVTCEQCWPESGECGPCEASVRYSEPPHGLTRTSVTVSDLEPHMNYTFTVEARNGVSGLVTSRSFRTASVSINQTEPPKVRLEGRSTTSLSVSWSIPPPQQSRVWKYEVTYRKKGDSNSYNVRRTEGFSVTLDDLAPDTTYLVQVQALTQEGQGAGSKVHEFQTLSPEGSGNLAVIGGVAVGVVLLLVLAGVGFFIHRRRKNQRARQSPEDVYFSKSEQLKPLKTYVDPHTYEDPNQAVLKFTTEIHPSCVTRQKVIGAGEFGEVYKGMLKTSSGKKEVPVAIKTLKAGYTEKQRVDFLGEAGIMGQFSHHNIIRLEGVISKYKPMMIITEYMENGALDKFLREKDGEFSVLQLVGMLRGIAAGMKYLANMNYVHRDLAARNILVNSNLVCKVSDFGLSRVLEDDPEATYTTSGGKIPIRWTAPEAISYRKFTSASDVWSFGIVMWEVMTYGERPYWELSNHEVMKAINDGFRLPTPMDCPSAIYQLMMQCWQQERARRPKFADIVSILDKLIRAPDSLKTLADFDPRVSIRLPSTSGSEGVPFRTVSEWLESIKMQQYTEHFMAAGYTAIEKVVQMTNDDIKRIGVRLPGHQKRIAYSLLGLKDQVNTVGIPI
Test protocol: Eph receptor kinase activity assay (radiometric), EphA2
Format: biochemical
Setup conditions: 100 nM compound; read-out: EphA2 % act 100 nM
Measure name: remaining activity at 0.1 µM (%)

> print(dat)
                               given.smiles   val
1  COc1cccc(NC(=O)c2cnc3ccc(C4CCNCC4)cn23)c1Cl  80.8
2  Cc1ccccc1-c1ccc2ncc(C(=O)Nc3ccccc3Cl)n2c1  72.7
3  COc1ccccc1-c1ccc2ncc(C(=O)Nc3ccccc3Cl)n2c1    77
4  Cc1cccc(-c2ccc3ncc(C(=O)Nc4ccccc4Cl)n3c2)c1  65.3
5  O=C(Nc1ccccc1Cl)c1cnc2ccc(-c3ncccn3)cn12    67
